Provenance of the data: patent US6433012B1

Tested on: MDA MB-231 cell cultures
Experiment: Cytotoxicity in vitro (reduction of cell number)
Type: cell-based
Settings: Homo sapiens, treated for 48 h, read-out: IC50 (50% reduction of cell number relative to vehicle-treated control)
Assay Endpoint: IC50 (nM)
// note: answer is a bare numeric in nM

Query string: Form field: reported IC50 of COC(=O)c1cc(I)c(Oc2ccc(OC)cc2)c(I)c1
Result string: 300
